- Study Target: UniProt:P32929
- Protocol Notes: Inhibition of wild type human CSE expressed in HEK293T cells assessed as reduction in H2S contents
- Type: cell-based
Measured Parameter: IC50 (µM)
Only the number, expressed in µM, is required.

# input compound: `O=C(O)C1=CC(=C(c2ccc(O)c(C(=O)O)c2)c2ccc(O)c(C(=O)O)c2)C=CC1=O` ; wanted: its IC50
# output 34.7

###

- Study Target: UniProt P32929
- Protocol Notes: Inhibition of human CSE using L-Cys as the substrate by tandem well based HTS assay
Hi there, I'd appreciate the recorded IC50 for every entry that follows.

# input compound: `Nc1ccc(O)c(C(=O)O)c1` ; wanted: its IC50
# output > 200 µM

# input Ok, now `O=[N+]([O-])c1ccc(Sc2cccc[n+]2[O-])c2nonc12`
# output < 50 µM

# input Ok, now `NC1=C(Br)C(=O)c2ncccc2C1=O`
# output < 50 µM

# input Ok, now `NC1=CC(=O)c2cccnc2C1=O`
# output < 50 µM

# input Ok, now Nc1ccc(Cc2ccc(NC3C(=O)c4ccccc4C(=O)C3Cl)cc2)cc1 (configuration not stated)
# output < 50 µM

# input Ok, now `COC(=O)C1=CC(=C(c2ccc(O)c(C(=O)OC)c2)c2ccc(O)c(C(=O)OC)c2)C=CC1=O`
# output > 200 µM

# input Ok, now `CC1=CC(=C(c2cc(C)c(O)c(C(=O)O)c2)c2cc(C)c(O)c(C(=O)O)c2)C=C(C(=O)O)C1=O`
# output 59.9 µM

# input Ok, now CC1OC2CC(=O)OC2C2=C1C(=O)c1c(O)cccc1C2=O (configuration not stated)
# output < 50 µM

# input Ok, now `Cc1nc2c(N)nc(N)nc2nc1O`
# output < 50 µM

# input Ok, now `O=C1C(Cl)=C(N2CCN(C3=C(Cl)C(=O)c4ccccc4C3=O)CC2)C(=O)c2ccccc21`
# output < 50 µM

# input Ok, now `O=[N+]([O-])c1ccc(O)c2ncccc12`
# output 8 µM

# input Ok, now O=C1C=C/C(=N/C2C(=O)c3ccccc3C(=O)C2Cl)C=C1Cl (configuration not stated)
# output < 50 µM

# input Ok, now Cc1ccc([S+]([O-])c2ccc([N+](=O)[O-])c3nonc23)cc1 (configuration not stated)
# output < 50 µM

# input Ok, now `O=C(O)C1=CC(=C(c2ccc(O)c(C(=O)O)c2)c2ccc(O)c(C(=O)O)c2)C=CC1=O`
# output 0.6 µM

# input Ok, now `O=C1C(Cl)=C(NCCN2CCNCC2)C(=O)c2ccccc21`
# output < 50 µM

# input Ok, now `O=C(O)c1ccccc1O`
# output > 200 µM

# input Ok, now `COc1cccc2c1C(=O)C1=C(C[C@H](CC(=O)O)O[C@H]1C)C2=O`
# output 6.2 µM

###

- Study Target: Cystathionine gamma-lyase (Homo sapiens, UniProt P32929)
- Sequence (P32929 whole entry): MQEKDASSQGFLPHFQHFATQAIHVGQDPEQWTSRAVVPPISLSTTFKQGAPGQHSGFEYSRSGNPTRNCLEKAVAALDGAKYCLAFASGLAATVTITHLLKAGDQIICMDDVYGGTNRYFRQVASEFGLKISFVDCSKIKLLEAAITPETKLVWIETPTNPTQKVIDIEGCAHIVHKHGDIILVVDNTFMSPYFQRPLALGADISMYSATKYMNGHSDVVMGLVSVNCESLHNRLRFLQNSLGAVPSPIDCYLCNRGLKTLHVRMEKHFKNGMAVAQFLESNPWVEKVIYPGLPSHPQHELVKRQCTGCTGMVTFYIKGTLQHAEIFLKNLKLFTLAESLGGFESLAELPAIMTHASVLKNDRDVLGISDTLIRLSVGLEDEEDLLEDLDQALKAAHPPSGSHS
- Protocol Notes: Inhibition of human CSE using H-Cys as the substrate by tandem well based HTS assay
Measured Parameter: pIC50
Please note pIC50 is a logarithmic value: minus log10 of concentration in mol/L. Answer with that number alone.

# input compound: `COc1cccc2c1C(=O)C1=C(C[C@H](CC(=O)O)O[C@H]1C)C2=O` ; wanted: its pIC50
# output 5.13

# input Ok, now O=C(O)C1=CC(=C(c2ccc(O)c(C(=O)O)c2)c2ccc(O)c(C(=O)O)c2)C=CC1=O [AURINTRICARBOXYLIC ACID]
# output 5.77

# input Ok, now O=[N+]([O-])c1ccc(O)c2ncccc12 [NITROXOLINE]
# output 4.97

// data source = ChEMBL document CHEMBL4673222
